# key: entry, value: in vivo tumor growth inhibition rate
Tested on: A549 cells of lung cancer
Assay type: in vivo, BALB/c nude mice
Conditions: mouse, in vivo, 15 mg/kg
No end group written: not given here.

[
  {
    "substance": "MGSTGVPGFSPRRSSVEAKMQSTSCSVRKSSTVTAWPAVVLLLSWGQRRGG-OH [HMMW-VII]",
    "in vivo tumor growth inhibition rate (%)": 69.13
  },
  {
    "substance": "MERAGVPGFSPRRSSVEAKMQSTSCSVRKSSTVTAWPAVVLLLSWGQRRGE-OH [HMMW-VIII]",
    "in vivo tumor growth inhibition rate (%)": 69.30
  },
  {
    "substance": "MERAGVPGFSPRRSSVEAKMQSTSCSVRKSSTVTAWPAVVLLLSWGKDDEE-OH [HMMW-IV]",
    "in vivo tumor growth inhibition rate (%)": 68.25
  },
  {
    "substance": "MERAGVPGFSPRRSSVEAKMQSTSCSVRKSSTVTAWPAVVLLLSWGQRRGG-OH [HMMW-I]",
    "in vivo tumor growth inhibition rate (%)": 69.23
  }
]

###

System: A431 cells of skin cancer
Experiment: transwell migration test
Assay type: cell-based, human
Conditions: dose 4 μM, 24 h
No end group written: not given here.
# key: entry, value: migration inhibition rate

[
  {
    "substance": "MGRAGVPGFSPRRSSVEAKMQSTSCSVRKSSTVTAWPAVVLLLSWGQRRGG-OH [HMMW-IX]",
    "migration inhibition rate (%)": 55.17
  },
  {
    "substance": "MERAGVPGFSPRRSSVEAKMQSTSCSVRKSSTVTAWPAVVLLLSWGQRRGG-OH [HMMW-I]",
    "migration inhibition rate (%)": 55.17
  },
  {
    "substance": "MGSTYNKRHSPRRSSVEAKMQSTSCSVRKSSTVTAWPAVVLLLSWGQRRGG-OH [HMMW-III]",
    "migration inhibition rate (%)": 54.27
  },
  {
    "substance": "MGSTYNPGFSPRRSSVEAKMQSTSCSVRKSSTVTAWPAVVLLLSWGQRRGG-OH [HMMW-V]",
    "migration inhibition rate (%)": 54.12
  },
  {
    "substance": "MERAGVPGFSPRRSSVEAKMQSTSCSVRKSSTVTAWPAVVLLLSWGQRRGE-OH [HMMW-VIII]",
    "migration inhibition rate (%)": 53.37
  }
]

###

System: TE13 cells of esophageal squamous cell carcinoma
Assay: transwell migration test
Type: cell-based, human
Conditions: dose 16 μM, 24 h
No end group written: not given here.
property.label: migration inhibition rate (%)

[
  {
    "substance": "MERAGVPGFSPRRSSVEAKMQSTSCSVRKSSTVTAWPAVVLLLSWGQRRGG-OH [HMMW-I]",
    "property.label": "migration inhibition rate",
    "units.label": "%",
    "experimental.value": 68.32
  },
  {
    "substance": "MGSTGVPGFSPRRSSVEAKMQSTSCSVRKSSTVTAWPAVVLLLSWGQRRGG-OH [HMMW-VII]",
    "property.label": "migration inhibition rate",
    "units.label": "%",
    "experimental.value": 63.30
  },
  {
    "substance": "MGRAGVPGFSPRRSSVEAKMQSTSCSVRKSSTVTAWPAVVLLLSWGQRRGG-OH [HMMW-IX]",
    "property.label": "migration inhibition rate",
    "units.label": "%",
    "experimental.value": 65.32
  },
  {
    "substance": "MGSTYNPGFSPRRSSVEAKMQSTSCSVRKSSTVTAWPAVVLLLSWGQRRGG-OH [HMMW-V]",
    "property.label": "migration inhibition rate",
    "units.label": "%",
    "experimental.value": 64.31
  },
  {
    "substance": "MERAGVPGFSPRRSSVEAKMQSTSCSVRKSSTVTAWPAVVLLLSWGQRDEE-OH [HMMW-VI]",
    "property.label": "migration inhibition rate",
    "units.label": "%",
    "experimental.value": 66.32
  },
  {
    "substance": "MGSTYNKRHSPRRSSVEAKMQSTSCSVRKSSTVTAWPAVVLLLSWGQRRGG-OH [HMMW-III]",
    "property.label": "migration inhibition rate",
    "units.label": "%",
    "experimental.value": 65.32
  },
  {
    "substance": "MERAGVPGFSPRRSSVEAKMQSTSCSVRKSSTVTAWPAVVLLLSWGQRRGE-OH [HMMW-VIII]",
    "property.label": "migration inhibition rate",
    "units.label": "%",
    "experimental.value": 63.31
  },
  {
    "substance": "MERAGVPGFSPRRSSVEAKMQSTSCSVRKSSTVTAWPAVVLLLHTSKDDEE-OH [HMMW-II]",
    "property.label": "migration inhibition rate",
    "units.label": "%",
    "experimental.value": 65.31
  },
  {
    "substance": "MERAGVPGFSPRRSSVEAKMQSTSCSVRKSSTVTAWPAVVLLLSWGKDDEE-OH [HMMW-IV]",
    "property.label": "migration inhibition rate",
    "units.label": "%",
    "experimental.value": 65.32
  }
]

###

# key: entry, value: in vivo tumor growth inhibition rate
Tested on: SCC4 cells of head and neck cancer
Type: in vivo, BALB/c nude mice
Conditions: mouse, in vivo, 15 mg/kg
No end group written: not given here.

[
  {
    "substance": "MGSTGVPGFSPRRSSVEAKMQSTSCSVRKSSTVTAWPAVVLLLSWGQRRGG-OH [HMMW-VII]",
    "tgt": "SCC4 cells of head and neck cancer",
    "units.label": "%",
    "in vivo tumor growth inhibition rate": 72.75
  },
  {
    "substance": "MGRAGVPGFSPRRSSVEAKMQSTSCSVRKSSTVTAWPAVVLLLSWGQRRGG-OH [HMMW-IX]",
    "tgt": "SCC4 cells of head and neck cancer",
    "units.label": "%",
    "in vivo tumor growth inhibition rate": 71.84
  },
  {
    "substance": "MERAGVPGFSPRRSSVEAKMQSTSCSVRKSSTVTAWPAVVLLLSWGQRDEE-OH [HMMW-VI]",
    "tgt": "SCC4 cells of head and neck cancer",
    "units.label": "%",
    "in vivo tumor growth inhibition rate": 73.54
  },
  {
    "substance": "MERAGVPGFSPRRSSVEAKMQSTSCSVRKSSTVTAWPAVVLLLHTSKDDEE-OH [HMMW-II]",
    "tgt": "SCC4 cells of head and neck cancer",
    "units.label": "%",
    "in vivo tumor growth inhibition rate": 66.24
  },
  {
    "substance": "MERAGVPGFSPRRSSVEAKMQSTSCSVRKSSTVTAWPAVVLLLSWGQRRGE-OH [HMMW-VIII]",
    "tgt": "SCC4 cells of head and neck cancer",
    "units.label": "%",
    "in vivo tumor growth inhibition rate": 68.24
  },
  {
    "substance": "MGSTYNPGFSPRRSSVEAKMQSTSCSVRKSSTVTAWPAVVLLLSWGQRRGG-OH [HMMW-V]",
    "tgt": "SCC4 cells of head and neck cancer",
    "units.label": "%",
    "in vivo tumor growth inhibition rate": 67.14
  },
  {
    "substance": "MGSTYNKRHSPRRSSVEAKMQSTSCSVRKSSTVTAWPAVVLLLSWGQRRGG-OH [HMMW-III]",
    "tgt": "SCC4 cells of head and neck cancer",
    "units.label": "%",
    "in vivo tumor growth inhibition rate": 70.84
  },
  {
    "substance": "MERAGVPGFSPRRSSVEAKMQSTSCSVRKSSTVTAWPAVVLLLSWGKDDEE-OH [HMMW-IV]",
    "tgt": "SCC4 cells of head and neck cancer",
    "units.label": "%",
    "in vivo tumor growth inhibition rate": 71.72
  },
  {
    "substance": "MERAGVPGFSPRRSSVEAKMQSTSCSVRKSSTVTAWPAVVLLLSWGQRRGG-OH [HMMW-I]",
    "tgt": "SCC4 cells of head and neck cancer",
    "units.label": "%",
    "in vivo tumor growth inhibition rate": 72.56
  }
]

###

# key: entry, value: invasion inhibition rate
Tested on: MDA-MB-231 cells of breast cancer
Assay: Matrigel transwell invasion test
Type: cell-based, human
Conditions: dose 4 μM, 24 h
No end group written: not given here.

[
  {
    "substance": "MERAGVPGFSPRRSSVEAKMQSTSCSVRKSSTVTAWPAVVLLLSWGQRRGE-OH [HMMW-VIII]",
    "units.label": "%",
    "invasion inhibition rate": 45.81
  },
  {
    "substance": "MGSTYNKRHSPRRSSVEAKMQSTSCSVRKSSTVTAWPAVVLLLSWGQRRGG-OH [HMMW-III]",
    "units.label": "%",
    "invasion inhibition rate": 49.82
  },
  {
    "substance": "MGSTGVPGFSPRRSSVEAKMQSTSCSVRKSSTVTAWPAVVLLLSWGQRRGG-OH [HMMW-VII]",
    "units.label": "%",
    "invasion inhibition rate": 49.55
  },
  {
    "substance": "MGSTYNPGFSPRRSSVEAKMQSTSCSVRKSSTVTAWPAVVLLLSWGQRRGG-OH [HMMW-V]",
    "units.label": "%",
    "invasion inhibition rate": 48.37
  },
  {
    "substance": "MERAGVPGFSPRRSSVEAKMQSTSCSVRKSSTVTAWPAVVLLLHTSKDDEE-OH [HMMW-II]",
    "units.label": "%",
    "invasion inhibition rate": 47.75
  },
  {
    "substance": "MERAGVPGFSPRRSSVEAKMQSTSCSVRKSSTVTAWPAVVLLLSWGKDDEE-OH [HMMW-IV]",
    "units.label": "%",
    "invasion inhibition rate": 46.73
  },
  {
    "substance": "MERAGVPGFSPRRSSVEAKMQSTSCSVRKSSTVTAWPAVVLLLSWGQRDEE-OH [HMMW-VI]",
    "units.label": "%",
    "invasion inhibition rate": 46.57
  },
  {
    "substance": "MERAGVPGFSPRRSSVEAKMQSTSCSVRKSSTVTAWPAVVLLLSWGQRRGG-OH [HMMW-I]",
    "units.label": "%",
    "invasion inhibition rate": 48.95
  },
  {
    "substance": "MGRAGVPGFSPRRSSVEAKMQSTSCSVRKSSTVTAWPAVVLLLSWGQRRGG-OH [HMMW-IX]",
    "units.label": "%",
    "invasion inhibition rate": 49.57
  }
]
